# System: L1210 leukemia ip in BDF1 mice, survival T/C
# PROTOCOL SUMMARY: NCI In Vivo Anticancer Drug Screen. Data for tumor model L1210 Leukemia (intraperitoneal) in B6D2F1 (BDF1) mice
# CONDITIONS USED: endpoint: mean survival time; dose: 100.0 mg/kg/injection; schedule: Q01DX009 (ip); vehicle: Klucel (hydroxypropylcellulose) (HPC); higher = longer survival
Toxic doses and inconclusive results are not listed.
Assignment: determine reported T/C for the given compounds.

Ask | Give T/C for the following compound: COc1cc([N+](=O)[O-])ccc1NC(=O)Oc1cc(C)ccc1C(C)C
Reply | 103 % of control

Ask | Give T/C for the following compound: CNc1nc(NC)nc(NC)n1
Reply | 98 % of control

Ask | Give T/C for the following compound: CC(C)=CCC(=O)NCC(CCN1CCCCC1)(c1cccc2ccccc12)C(C)C (stereo unspecified)
Reply | 90 % of control

Ask | Give T/C for the following compound: O=C(Nc1ccccc1C(F)(F)F)N(Cc1ccccc1)Cc1ccccc1
Reply | 101 % of control

Ask | Give T/C for the following compound: N#CC(CC(=O)c1ccc2c(c1)OCO2)c1ccc2c(c1)OCO2 (stereo unspecified)
Reply | 101 % of control

Ask | Give T/C for the following compound: O=C(OC/C(=C\Cl)OC(=O)c1ccc([N+](=O)[O-])cc1)c1ccc([N+](=O)[O-])cc1
Reply | 100 % of control

Ask | Give T/C for the following compound: O=C(/C=C/c1ccccc1Cl)c1ccccc1
Reply | 92 % of control

Ask | Give T/C for the following compound: O=C(Nc1ccccc1C(F)(F)F)N(Cc1ccccc1)c1ccccc1
Reply | 93 % of control

Ask | Give T/C for the following compound: Cc1c(Cl)cccc1NC(=O)c1cccc([N+](=O)[O-])c1
Reply | 103 % of control

Ask | Give T/C for the following compound: CC(C)(C)c1cccc(S(=O)(=O)Oc2ccccc2[N+](=O)[O-])c1
Reply | 103 % of control

Ask | Give T/C for the following compound: CC(=O)/C=C/c1ccc(O)cc1
Reply | 98 % of control
